# tgt: erythrocytes infected with P. falciparum field isolate 10975
# assay_details: flow cytometry, staining of IEs
measured_parameter: % parasite recognition (%)

binder | value_observed
MGC35 (antibody) VH: EVQLVESGGGLVQPGGSLRLSCEASGFNSRSYWMTWVRQAPGKGLEWVASINQDATEKNYVDSVKGRFTISRDTAKNSLYLQMNSLRAEDTAVYYCARDRFCGGESHLHGQEDLPRPSISAEPGSVIPLGSLVTFVCRGPVGVHTFRLERGWTYNDTEDVSQAGPSESEARFRMDSVREGNAGLYRCIYYKPPKWSEQSAYLELRVKGGDVTWALLTYCGGDGEESDYPMDVWGKGTTVTVSS VL: QTVVTQEPSLTVSPGGTVTLTCASSTGPVTSAYYPNWFQQKPGQAPRSLIYNINKKHSWTPDRFSGSLLGGKAALTLSGVQPEDEADYYCLLSCGGAQPWVFGGGTKLTVQ | 7.4
MGC34 (antibody) VH: EVQLVESGGGLVQPGGSLRLSCEASGFTFSSYWMSWVRQAPGKGLEWVANINQDGSQKDYVDSVKGRFTISRDTAKNSLYLQMNSLRAEDTAVYYCARERLCTDDSHMHGEEDLPRPSISAEPGTVIPLGSHVTFVCRGPVGIHTFRLERESRSLYTETEDVTQVSPSESEARFRIESVTEGNAGLYRCVYYKPPKWSEQSDYLELLVKGEDVTRALFTHCGGDGKESDYHMDVWGKGTTVTVSS VL: QTVVTQEPSLTVSPGGTVTLTCASSTGAVTSGYYPSWFHQKPGQPVRALIYSTSKTHSWTPARFSGSLLGGKAALTLSNVQPEDEADYYCLLYYGGPQPWVFGGGTKLTVQ | 15.2
